Reported GI50 values, MDA-MB-435.

# smilesCode, GI50
rows = [
    ("C[C@]12CC[C@@H]3c4ccc(O)cc4CC[C@H]3[C@@H]1CC[C@@H]2NS(=O)(=O)c1ccc(Cl)cc1", "1840 nM"),
    ("Nc1ccc(S(=O)(=O)c2ccc(N)cc2)cc1", "> 100000 nM"),
    ("CCCC[C@H](NC(=O)[C@H]1CCCCN1C)C(=O)N(C)[C@H](C[C@@H](OC(C)=O)c1nc(C(=O)N[C@@H](Cc2ccccc2)C[C@H](C)C(=O)OCC)cs1)C(C)C", "< 3.33 nM"),
    ("COc1ccc2cc(C#Cc3ccc(-n4c(/C=C/c5cc(OC)c(OC)c(OC)c5)nc5ccccc5c4=O)c(C)c3)ccc2c1", "> 100000 nM"),
    ("O=C1/C=C/[C@@H](O)[C@@H]2C[C@@H](O)C[C@H]2/C=C/CCC[C@H](CCOCc2ccccc2)O1", "53.9 nM"),
    ("C=CCN1C(=O)c2cccc3c(N4CCOCC4)ccc(c23)C1=O", "65.9 nM"),
    ("O=C(c1ccc(Cl)c(Cl)c1)N1CCN(C(=O)c2ccc(Cl)c(Cl)c2)C1=S", "15400 nM"),
    ("CN[C@@H](C)C(=O)N[C@H]1CCS[C@H]2CC(C)(C)[C@@H](C(=O)N[C@H]3c4ccccc4C[C@H]3OCC#CC#CCO[C@@H]3Cc4ccccc4[C@@H]3NC(=O)[C@H]3N4C(=O)[C@@H](NC(=O)[C@H](C)NC)CCS[C@H]4CC3(C)C)N2C1=O", "> 23000 nM"),
    ("COC1=C(OC)C(=O)C(CCCCCCCCCC[P+](c2ccccc2)(c2ccccc2)c2ccccc2)=C(C)C1=O", "193 nM"),
    ("O=C1/C(=C/c2ccccc2)CN(C(=O)CCN2CCC(=NO)CC2)C/C1=C\\c1ccccc1", "1420 nM"),
    ("COc1ccc2c(c1)/C(=N/OC(C)=O)c1c-2c(Nc2cccc(/C(C)=N/OC(C)=O)c2)nc2ccccc12", "> 100000 nM"),
]
